Data provenance is ChEMBL document CHEMBL4419121.

- studySystem: G-protein coupled receptor 6 (Homo sapiens, UniProt P46095)
- Sequence (P46095 whole entry): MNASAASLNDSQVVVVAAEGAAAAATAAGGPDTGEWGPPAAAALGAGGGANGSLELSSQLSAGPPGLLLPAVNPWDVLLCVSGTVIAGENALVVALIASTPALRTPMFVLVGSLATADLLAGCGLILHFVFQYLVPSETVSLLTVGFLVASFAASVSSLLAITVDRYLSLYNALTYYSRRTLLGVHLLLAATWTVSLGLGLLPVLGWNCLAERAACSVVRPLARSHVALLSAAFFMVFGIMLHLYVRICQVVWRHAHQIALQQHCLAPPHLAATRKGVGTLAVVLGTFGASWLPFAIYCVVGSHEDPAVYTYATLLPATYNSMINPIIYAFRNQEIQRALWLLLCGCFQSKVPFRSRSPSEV
- assayInfo: Modulation activity at GPR6 receptor (unknown origin) expressed in CHO-K1 cells assessed as inhibition of constitutive cAMP activity incubated for 45 mins in presence of 300 uM IBMX by Perkin Elmer Lance HTRF Ultrac-AMP assay
- Type: functional, cell-based
- measurementConditions: cho-k1
readout: IC50 (nM)

Below, 3 compounds whose answers are already recorded.
{"compound": "CC(=O)N1CCc2nc(N3CCN(Cc4ccc(F)cc4F)CC3)c(NC3CCC3)nc2C1", "studySystem": "G-protein coupled receptor 6 (Homo sapiens, UniProt P46095)", "observedMeasurement": 43.7}
{"compound": "CCC(=O)N1CCc2nc(N3CCC(Oc4ccc(F)cc4F)CC3)c(N[C@H]3CCOC3)nc2C1", "studySystem": "G-protein coupled receptor 6 (Homo sapiens, UniProt P46095)", "observedMeasurement": 39.2}
{"compound": "CC(C)Nc1nc2c(nc1N1CCC(Oc3ccc(F)cc3F)CC1)CCN(C)C2", "studySystem": "G-protein coupled receptor 6 (Homo sapiens, UniProt P46095)", "observedMeasurement": 90.1}

(I) CC(C)Nc1nc2c(nc1N1CCC(Oc3ccc(F)cc3F)CC1)C(C)N(C(=O)C(F)F)CC2 (stereo not given)
(II) CC(=O)N1CCc2nc(N3CCC(Oc4ccc(F)cc4F)CC3)c(NCC(F)F)nc2C1
Q: Which value of IC50 is smaller, the one for I or the one for II ? // output: label of the selected item
Ans: II

---

- studySystem: G-protein coupled receptor 6 (Homo sapiens)
- assayInfo: Modulation activity at GPR6 receptor (unknown origin) expressed in CHO-K1 cells assessed as inhibition of constitutive cAMP activity incubated for 45 mins by Perkin Elmer Lance HTRF Ultrac-AMP assay
- Type: functional, cell-based
readout: IC50 (nM)

{"compound": "CO[C@@H](C)C(=O)N1Cc2nc(N3CCC(Oc4ccc(F)cc4F)CC3)c(NCC(F)F)nc2CC1C (stereo not given in full)", "IC50 / nM": 20.9}
{"compound": "COCC(=O)N1CCc2nc(NC(C)C)c(N3CCC(Oc4ccc(F)cc4F)CC3)nc2C1", "IC50 / nM": 17.3}
{"compound": "CC(C)Nc1nc2c(nc1N1CCC(Oc3ccc(F)cc3F)CC1)CN(C(=O)CC#N)CC2", "IC50 / nM": 18}
{"compound": "COc1ccc(OC2CCN(c3nc4c(nc3NC3CCC3)CCN(C(=O)N(C)C)C4)CC2)c(F)c1", "IC50 / nM": 13.8}
{"compound": "CN1CCc2nc(NC3CC3)c(N3CCC([C@H](F)c4ccc(F)cc4F)CC3)nc2C1", "IC50 / nM": 15.2}

---

- studySystem: G-protein coupled receptor 6 (Homo sapiens)
- assayInfo: Modulation activity at GPR6 receptor (unknown origin) expressed in CHO-K1 cells assessed as inhibition of constitutive cAMP activity incubated for 45 mins by Perkin Elmer Lance HTRF Ultrac-AMP assay
- Format: functional, cell-based
readout: IC50 (nM)

{"compound": "COCC(=O)N1CCc2nc(NC(C)C)c(N3CCC(Oc4ccc(F)cc4F)CC3)nc2C1C (centres undefined)", "observedMeasurement": 91}

(P) CC(=O)N1Cc2nc(N3CCC(Oc4ccc(F)cc4F)CC3)c(NCC(F)F)nc2CC1C (centres undefined)
(Q) CC(C)Nc1nc2c(nc1N1CCC(Oc3ccc(F)cc3F)CC1)C(C)N(S(C)(=O)=O)CC2 (centres undefined)
Q: Thinking about recorded IC50 values, which is higher, P or Q ? // output: label of the selected item
Ans: Q
(Q: 98 nM, P: 24.9 nM)

(A) CC(=O)N1CCc2nc(NCC(F)F)c(N3CCC(Oc4ccc(F)cc4F)CC3)nc2C1C (centres undefined)
(B) COCC(=O)N1Cc2nc(N3CCC(Oc4ccc(F)cc4F)CC3)c(NCC(F)F)nc2CC1C (centres undefined)
Q: Thinking about recorded IC50 values, which is higher, A or B ? // output: label of the selected item
Ans: A
(A: 76 nM, B: 23 nM)

(I) CC(=O)N1CCc2nc(NCC(F)F)c(N3CCC(Oc4ccc(F)cc4F)CC3)nc2C1
(II) COCC(=O)N1CCc2nc(NCC(F)F)c(N3CCC(Oc4ccc(F)cc4F)CC3)nc2C1C (centres undefined)
(III) CC(=O)N1CCc2nc(NC(C)C)c(N3CCC(Oc4ccc(C#N)cc4F)CC3)nc2C1
Q: Order the records so the highest IC50 appears first and the lowest last. Sort and list the labels as requested.
Ans: III, II, I
